Ref: patent US5948793A

Could you please report measured Ki for the items listed next?
# TARGET DESC: neuronal nicotinic cholinergic channel receptors
# PROTOCOL DETAILS: [3H]-cytisine displacement binding to neuronal nicotinic cholinergic channel receptors
# Type: rat (crude synaptic membranes from whole rat brain)
# PROTOCOL CONDITIONS: Table 2; [3H]-cytisine 1.25 nM, 60 min at 4° C.; read-out: Receptor Binding Ki
Counter-ions that a name gives are not always drawn.
Report the figure in nM without appending any unit label.

Task: Kindly indicate its recorded Ki. Item: CN1C[C@@H](F)C[C@H]1COc1cccnc1 [Example 78, dihydrochloride]
Output: 5.77

Task: Kindly indicate its recorded Ki. Item: Brc1cncc(OC[C@@H]2CCN2)c1 [Example 67, dihydrochloride]
Output: 0.2

Task: Kindly indicate its recorded Ki. Item: CN1CCC[C@H]1COc1cncc(N)c1 [Example 94, hydrochloride]
Output: 0.5

Task: Kindly indicate its recorded Ki. Item: CN1CCC[C@H]1COc1ccc(Cl)nc1 [Example 55, dihydrochloride]
Output: 0.63

----------
# TARGET DESC: neuronal nicotinic cholinergic channel receptors
# PROTOCOL DETAILS: [3H]-cytisine displacement binding to neuronal nicotinic cholinergic channel receptors
# Format: rat (crude synaptic membranes from whole rat brain)
# PROTOCOL CONDITIONS: Table 2; [3H]-cytisine 1.25 nM, 60 min at 4° C.; read-out: Receptor Binding Ki
# Procedure: B. Protocol For Determination of Nicotinic Cholinergic Channel Receptor Binding Potencies of Ligands Binding of [^3 H]-cytisine ([^3 H]-CYT) to nicotinic receptors was accomplished using crude synaptic membrane preparations from whole rat brain (Pabreza et al., Molecular Pharmaol., 1990, 39:9). Washed membranes were stored at -80° C. prior to use. […] The filters are counted in 4 mL of Ecolume® (ICN). […] Alternately, data were expressed as a percentage of the total specific binding.
Counter-ions that a name gives are not always drawn.
Could you please report measured pKi for the items listed next?
As a rule, pKi stands for the negative log10 of the concentration, concentration in M.

Task: Kindly indicate its recorded pKi. Item: FC(F)(F)c1cncc(OC[C@@H]2CCN2)c1 [Example 70, dihydrochloride]
Output: 9.22

Task: Kindly indicate its recorded pKi. Item: CN1CC[C@H]1COc1cnc(Cl)c(Cl)c1 [Example 110, hydrochloride]
Output: 9.12

Task: Kindly indicate its recorded pKi. Item: c1cnc(OC[C@@H]2CCN2)cn1 [Example 7, dihydrochloride]
Output: 9.36

Task: Kindly indicate its recorded pKi. Item: CCC[C@H]1CCN(C)[C@H]1COc1cccnc1 (relative stereo) [Example 60, dihydrochloride]
Output: 7.29

Task: Kindly indicate its recorded pKi. Item: CN1C[C@@H](CF)C[C@H]1COc1cccnc1 [Example 92, dihydrochloride]
Output: 6.85

Task: Kindly indicate its recorded pKi. Item: COCC1C[C@@H](COc2cccnc2)N(C)C1 (stereo partly drawn) [Example 49, dihydrochloride]
Output: 7.18

Task: Kindly indicate its recorded pKi. Item: Clc1cncc(OC[C@@H]2CCN2)c1 [Example 39, dihydrochloride]
Output: 10.40

Task: Kindly indicate its recorded pKi. Item: C=CCN1CCC[C@H]1COc1cccnc1 [Example 82, dihydrochloride]
Output: 7.14

Task: Kindly indicate its recorded pKi. Item: c1cncc(OCC[C@@H]2CCCN2)c1 [Example 102, dihydrochloride]
Output: 7.46
